assay-system: PD-1 (human) (UniProt Q15116)
Sequence (Q15116 25-288): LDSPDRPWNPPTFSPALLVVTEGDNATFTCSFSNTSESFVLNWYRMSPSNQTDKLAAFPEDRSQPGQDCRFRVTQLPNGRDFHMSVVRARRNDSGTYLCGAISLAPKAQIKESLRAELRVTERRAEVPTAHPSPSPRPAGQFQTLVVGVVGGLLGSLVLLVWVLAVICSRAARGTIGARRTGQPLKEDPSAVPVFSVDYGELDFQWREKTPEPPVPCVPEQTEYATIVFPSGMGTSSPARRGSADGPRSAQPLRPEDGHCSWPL
procedure-summary: cell-based or functional assay
Overview of recorded Fold increase in IL2 reporter signal for various binders
Record the value in fold, omitting the unit from your answer.

1. variant PD-L1 IgV-Fc A33D, N45T, N78I (Fc fusion) FTVTVPKDLYVVEYGSNMTIECKFPVEKQLDLDALIVYWEMEDKTIIQFVHGEEDLKVQHSSYRQRARLLKDQLSLGIAALQITDVKLQDAGVYRCMISYGGADYKRITVKVNAAAAEPKSSDKTHTCPPCPAPELLGGPSVFLFPPKPKDTLMISRTPEVTCVVVDVSHEDPEVKFNWYVDGVEVHNAKTKPCEEQYGSTYRCVSVLTVLHQDWLNGKEYKCKVSNKALPAPIEKTISKAKGQPREPQVYTLPPSREEMTKNQVSLTCLVKGFYPSDIAVEWESNGQPENNYKTTPPVLDSDGSFFLYSKLTVDKSRWQQGNVFSCSVMHEALHNHYTQKSLSLSPGK: 0.89

**Q:** Please look up its Fold increase in IL2 reporter signal: variant PD-L1 IgV-Fc A33D, S75P (SEQ ID NO 285) (Fc fusion) FTVTVPKDLYVVEYGSNMTIECKFPVEKQLDLDALIVYWEMEDKNIIQFVHGEEDLKVQHSSYRQRARLLKDQLPLGNAALQITDVKLQDAGVYRCVISYGGADYKRITVKVNAAAAEPKSSDKTHTCPPCPAPELLGGPSVFLFPPKPKDTLMISRTPEVTCVVVDVSHEDPEVKFNWYVDGVEVHNAKTKPCEEQYGSTYRCVSVLTVLHQDWLNGKEYKCKVSNKALPAPIEKTISKAKGQPREPQVYTLPPSREEMTKNQVSLTCLVKGFYPSDIAVEWESNGQPENNYKTTPPVLDSDGSFFLYSKLTVDKSRWQQGNVFSCSVMHEALHNHYTQKSLSLSPGK
**A:** 0.97

**Q:** Entry variant PD-L1 IgV-Fc P6S, N45T, N78I, I83T (Fc fusion) FTVTVSKDLYVVEYGSNMTIECKFPVEKQLDLAALIVYWEMEDKTIIQFVHGEEDLKVQHSSYRQRARLLKDQLSLGIAALQTTDVKLQDAGVYRCMISYGGADYKRITVKVNAAAAEPKSSDKTHTCPPCPAPELLGGPSVFLFPPKPKDTLMISRTPEVTCVVVDVSHEDPEVKFNWYVDGVEVHNAKTKPCEEQYGSTYRCVSVLTVLHQDWLNGKEYKCKVSNKALPAPIEKTISKAKGQPREPQVYTLPPSREEMTKNQVSLTCLVKGFYPSDIAVEWESNGQPENNYKTTPPVLDSDGSFFLYSKLTVDKSRWQQGNVFSCSVMHEALHNHYTQKSLSLSPGK has what Fold increase in IL2 reporter signal?
**A:** 1.01

// data source = patent US20260062456A1
